System: Rattus norvegicus
Test: Antiinflammatory activity in Wistar rat model of carrageenan-induced paw edema assessed as reduction in thickness of paw edema at 10 mg/kg, ip pretreated for 1 hr followed by carrageenan challenge and measured after 2 hrs (reference value: 2.06 +/-0.09 mm)
Type: functional
Details: time 3 hrs
Lab note: compare Activity with 0.8 mm, writing T if less and F if equal or more.

Worked examples follow.
chem_smiles=COc1cc(/C=C/C(=O)/C=C(O)/C=C/c2ccc(OC(=O)[C@@H](CCSC)NC(=O)OC(C)(C)C)c(OC)c2)ccc1OC(=O)[C@@H](CCSC)NC(=O)OC(C)(C)C class_assignment=T
chem_smiles=COc1cc(/C=C/C(=O)/C=C(O)/C=C/c2ccc(OC(=O)[C@H](Cc3ccccc3)NC(=O)OCc3ccccc3)c(OC)c2)ccc1OC(=O)[C@H](Cc1ccccc1)NC(=O)OCc1ccccc1 class_assignment=F
chem_smiles=COc1cc(/C=C/C(=O)/C=C(O)/C=C/c2ccc(OC(=O)[C@H](CCSC)NC(=O)OCc3ccccc3)c(OC)c2)ccc1OC(=O)[C@H](CCSC)NC(=O)OCc1ccccc1 class_assignment=T

Enquiry: In plain terms, does COc1cc(/C=C/C(=O)/C=C(O)/C=C/c2ccc(OC(=O)[C@@H](NC(=O)OC(C)(C)C)C(C)C)c(OC)c2)ccc1OC(=O)[C@@H](NC(=O)OC(C)(C)C)C(C)C come in under 0.8 mm for Activity?
Return: F

Enquiry: Activity under 0.8 mm? Item: COc1cc(/C=C/C(=O)/C=C(O)/C=C/c2ccc(OC(=O)CN)c(OC)c2)ccc1OC(=O)CN.Cl.Cl
Return: T

###

Test system: Rattus norvegicus
Assay: Antiinflammatory activity in Wistar rat model of carrageenan-induced paw edema assessed as reduction in thickness of paw edema at 10 mg/kg, ip pretreated for 1 hr followed by carrageenan challenge and measured after 4 hrs (reference value: 1.40 +/-0.10 mm)
Format: functional
Settings: time 5 hrs
Class True: Activity at least 0.8 mm. Class False: Activity below 0.8 mm.

Enquiry: Does Activity meet or surpass 0.8 mm for COc1cc(/C=C/C(=O)/C=C(O)/C=C/c2ccc(OC(=O)[C@@H](C)NC(=O)OCc3ccccc3)c(OC)c2)ccc1OC(=O)[C@@H](C)NC(=O)OCc1ccccc1 ?
Return: False

Enquiry: Is reported Activity greater than or equal to 0.8 mm here: COc1cc(/C=C/C(=O)/C=C(O)/C=C/c2ccc(OC(=O)[C@@H](NC(=O)OCc3ccccc3)C(C)C)c(OC)c2)ccc1OC(=O)[C@@H](NC(=O)OCc1ccccc1)C(C)C
Return: True

Enquiry: Decide: Activity of COc1cc(/C=C/C(=O)/C=C(O)/C=C/c2ccc(OC(=O)[C@H](Cc3ccccc3)NC(=O)OCC3c4ccccc4-c4ccccc43)c(OC)c2)ccc1OC(=O)[C@H](Cc1ccccc1)NC(=O)OCC1c2ccccc2-c2ccccc21 >= 0.8 mm?
Return: False

Enquiry: Is reported Activity greater than or equal to 0.8 mm here: COc1cc(/C=C/C(=O)CC(=O)/C=C/c2ccc(O)c(OC)c2)ccc1O
Return: False

###

System: Rattus norvegicus
Assay: Anti-inflammatory activity in Wistar rat assessed as inhibition of carrageenan-induced paw edema at 10 mg/kg, ip pretreated for 1 hr followed by carrageenan challenge and measured after 3 hr relative to control (reference value: 0.00 +/-0.1 %)
Assay type: functional
Settings: time 4 hrs
value.type: inhibition in vivo at 10 mg/kg (%)
One number for each entry, in %.

Hello, I would appreciate it if you could give inhibition in vivo at 10 mg/kg for each entry below.
1. COc1cc(/C=C/C(=O)/C=C(O)/C=C/c2ccc(OC(=O)[C@@H](N)CCC(N)=O)c(OC)c2)ccc1OC(=O)[C@@H](N)CCC(N)=O.Cl.Cl
2. COc1cc(/C=C/C(=O)/C=C(O)/C=C/c2ccc(OC(=O)[C@H](Cc3ccccc3)NC(=O)OCc3ccccc3)c(OC)c2)ccc1OC(=O)[C@H](Cc1ccccc1)NC(=O)OCc1ccccc1
3. COc1cc(/C=C/C(=O)/C=C(O)/C=C/c2ccc(OC(=O)[C@H](Cc3c[nH]c4ccccc34)NC(=O)OCc3ccccc3)c(OC)c2)ccc1OC(=O)[C@H](Cc1c[nH]c2ccccc12)NC(=O)OCc1ccccc1

Return:
1. 43
2. 9
3. 24
